This listing pairs molecules with measured pIC50.
# measurement-target: Bcl-2 protein (Homo sapiens)
# test-summary: ELISA assay, competitive binding to Bcl-2 protein (biotin-Bim/streptavidin plate)
# conditions: method calculates average IC50, read-out: Bcl-2 binding constants
Please express pIC50 as -log10 of the molar concentration.

[
  {
    "smiles-data": "O=C1N=C2C(=C1NCCCc1ccccc1)c1ccc(Sc3ccc(Br)cc3)c3cccc2c13",
    "reading": 8.22
  },
  {
    "smiles-data": "CCCCNC1=C2C(=NC1=O)c1cccc3c(N4CCSCC4)ccc2c13",
    "reading": 7.20
  },
  {
    "smiles-data": "CC(C)c1ccc(Oc2ccc3c4c(cccc24)C2=NC(=O)C(NCCCc4ccccc4)=C23)cc1",
    "reading": 8.05
  },
  {
    "smiles-data": "CCCCNC1=C2C(=NC1=O)c1cccc3c(C(=O)c4ccccc4)ccc2c13",
    "reading": 7.19
  },
  {
    "smiles-data": "CCCCNC1=C2C(=NC1=O)c1cccc3cccc2c13",
    "reading": 6.85
  }
]

Lookup: Recorded pIC50 for `CCCCNC1=C2C(=NC1=O)c1cccc3c(Oc4ccc(C(C)C)cc4)ccc2c13` , please?
Found: 6.95

Lookup: Recorded pIC50 for `O=C1N=C2C(=C1NCCCc1ccccc1)c1ccc(N3CCSCC3)c3cccc2c13` , please?
Found: 7.77

---

Consider compounds characterized by their pKi with Mcl-1 protein (Homo sapiens, UniProt Q07820).
Sequence (Q07820 whole entry, species assumed): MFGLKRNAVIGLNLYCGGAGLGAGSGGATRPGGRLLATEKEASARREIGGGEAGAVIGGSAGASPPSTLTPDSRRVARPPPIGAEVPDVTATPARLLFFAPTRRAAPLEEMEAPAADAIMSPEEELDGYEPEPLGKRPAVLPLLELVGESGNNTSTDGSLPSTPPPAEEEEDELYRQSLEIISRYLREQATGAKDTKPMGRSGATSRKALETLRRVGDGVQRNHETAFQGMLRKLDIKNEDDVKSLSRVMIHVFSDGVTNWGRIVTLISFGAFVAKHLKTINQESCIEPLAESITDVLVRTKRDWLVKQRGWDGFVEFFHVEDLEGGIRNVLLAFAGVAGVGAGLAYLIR
Please express pKi as -log10 of the molar concentration.

[
  {
    "compound": "CCC(C)c1ccc(Oc2ccc3c4c(cccc24)C2=NC(=O)C(C#N)=C23)cc1 (stereo not shown)",
    "measurement-target": "Mcl-1 protein (Homo sapiens, UniProt Q07820)",
    "pKi": 7.62
  },
  {
    "compound": "CCC(C)c1ccc(Sc2ccc3c4c(cccc24)C2=NC(=O)C(C#N)=C23)cc1 (stereo not shown)",
    "measurement-target": "Mcl-1 protein (Homo sapiens, UniProt Q07820)",
    "pKi": 7.19
  },
  {
    "compound": "CC(C)c1ccc(Oc2ccc3c4c(cccc24)C2=NC(=O)C(C#N)=C23)cc1",
    "measurement-target": "Mcl-1 protein (Homo sapiens, UniProt Q07820)",
    "pKi": 7.07
  }
]

Lookup: Recorded pKi for `CC(C)c1ccc(Sc2ccc3cccc4c3c2C2=NC(=O)C(C#N)=C24)cc1` , please?
Found: 7.07

Lookup: Recorded pKi for `CCCCCCOc1ccc2c3c(cccc13)C1=NC(=O)C(C(=O)O)=C12` , please?
Found: 7.07

Lookup: Recorded pKi for `N#CC1=C2C(=NC1=O)c1ccc(C(=O)c3ccc(CN)cc3)c3cccc2c13` , please?
Found: 6.87

Lookup: Recorded pKi for `CC(C)Cc1ccc(Oc2ccc3c4c(cccc24)C2=C(C#N)C(=O)N=C23)cc1` , please?
Found: 7.25

---

This listing pairs molecules with measured Time (time period after which the interaction between Bcl-2 and Bax was interfered).
# measurement-target: interaction between Bcl-2 and Bax (Homo sapiens)
# Construct: expressed in transfected cells; host or cells: Hela cells
# Sequence (P10415 whole entry): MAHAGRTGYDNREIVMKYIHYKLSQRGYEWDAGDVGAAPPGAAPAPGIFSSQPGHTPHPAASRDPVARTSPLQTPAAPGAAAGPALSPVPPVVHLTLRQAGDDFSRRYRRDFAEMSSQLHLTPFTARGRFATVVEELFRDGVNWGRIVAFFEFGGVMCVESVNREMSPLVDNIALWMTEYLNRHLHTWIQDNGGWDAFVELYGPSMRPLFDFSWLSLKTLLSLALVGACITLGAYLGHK
# test-summary: Intracellular FRET, Bcl-2-CFP/Bax-YFP in Hela cells
# Format: cell-based
# conditions: at the concentration given
Write the value in h as a bare number.

As a guide, the following entries are already answered.
[
  {
    "molecule": "CCCCNC1=C2C(=NC1=O)c1cccc3c(Sc4ccc(Br)cc4)ccc2c13 [Compound 7]",
    "reading": 3
  },
  {
    "molecule": "CCCCCCOc1ccc2c3c(cccc13)C1=NC(=O)C(C(=O)O)=C12 [Compound 26]",
    "reading": 5
  },
  {
    "molecule": "CC(C)Cc1ccc(Sc2ccc3c4c(cccc24)C2=NC(=O)C(C#N)=C23)cc1 [Compound 18]",
    "reading": 4
  },
  {
    "molecule": "CC(C)c1ccc(Sc2ccc3cccc4c3c2C2=NC(=O)C(C#N)=C24)cc1 [Compound 22]",
    "reading": 2
  },
  {
    "molecule": "CCCCNC1=C2C(=NC1=O)c1cccc3c(C(=O)c4ccccc4)ccc2c13 [Compound 5]",
    "reading": 6
  }
]

Lookup: Reported Time (time period after which the interaction between Bcl-2 and Bax was interfered) for interaction between Bcl-2 and Bax (Homo sapiens), given N#CC1=C2C(=NC1=O)c1ccc(C(=O)c3ccc(CN)cc3)c3cccc2c13 [Compound 25] ?
Found: 4

Lookup: Reported Time (time period after which the interaction between Bcl-2 and Bax was interfered) for interaction between Bcl-2 and Bax (Homo sapiens), given CCCCNC1=C2C(=NC1=O)c1cccc3cccc2c13 [Compound 1] ?
Found: 2

Lookup: Reported Time (time period after which the interaction between Bcl-2 and Bax was interfered) for interaction between Bcl-2 and Bax (Homo sapiens), given CC(C)c1ccc(Oc2ccc3c4c(cccc24)C2=NC(=O)C(C#N)=C23)cc1 [Compound 17] ?
Found: 2

Lookup: Reported Time (time period after which the interaction between Bcl-2 and Bax was interfered) for interaction between Bcl-2 and Bax (Homo sapiens), given CCC(C)c1ccc(Sc2ccc3c4c(cccc24)C2=NC(=O)C(C#N)=C23)cc1 (stereo not drawn) [Compound 21] ?
Found: 2
